The entries below are paired with their reported pIC50.
- Test target: human (h) TRPV3 (Homo sapiens)
- Construct: expressed in transfected cells; host or cells: HEK293/TREx, tetracycline-induced
- Sequence (Q8NET8 1-790): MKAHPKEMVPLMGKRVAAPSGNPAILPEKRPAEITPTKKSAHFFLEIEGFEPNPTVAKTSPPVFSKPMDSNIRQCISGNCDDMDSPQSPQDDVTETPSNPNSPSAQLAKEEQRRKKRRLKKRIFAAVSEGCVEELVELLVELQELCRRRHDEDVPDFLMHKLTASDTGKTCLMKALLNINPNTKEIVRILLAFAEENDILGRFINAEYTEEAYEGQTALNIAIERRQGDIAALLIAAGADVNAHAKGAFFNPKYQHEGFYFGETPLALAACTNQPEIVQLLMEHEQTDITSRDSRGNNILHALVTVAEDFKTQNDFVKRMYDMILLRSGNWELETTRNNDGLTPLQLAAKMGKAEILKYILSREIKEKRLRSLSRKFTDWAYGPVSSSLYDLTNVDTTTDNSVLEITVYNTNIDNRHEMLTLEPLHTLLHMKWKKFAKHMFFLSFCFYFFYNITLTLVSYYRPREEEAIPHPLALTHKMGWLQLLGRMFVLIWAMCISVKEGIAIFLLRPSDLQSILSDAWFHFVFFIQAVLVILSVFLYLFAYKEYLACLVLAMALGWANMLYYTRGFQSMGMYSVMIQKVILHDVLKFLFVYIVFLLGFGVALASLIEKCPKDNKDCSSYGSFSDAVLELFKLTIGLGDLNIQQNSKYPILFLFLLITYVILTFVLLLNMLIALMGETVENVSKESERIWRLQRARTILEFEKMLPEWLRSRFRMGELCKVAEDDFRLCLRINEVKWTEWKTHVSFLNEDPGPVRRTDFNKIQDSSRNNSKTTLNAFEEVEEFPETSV
- Procedure details: Whole-cell patch clamp, human TRPV3-mediated currents;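 note: compounds tested at concentrations up to 30 µM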
- Format: cell-based
- Experimental parameters: Phase 1 outward current, read-out: P1 Out (h)
pIC50: −log10 of the molar value.

Examples from the recorded data:
INSERT INTO measurements (smiles, value) VALUES
  ('Cc1cccc(C)c1-n1c(/C=C/c2cc(Cl)ccc2O)nc2cnccc2c1=O', '≥ 5.00'),
  ('Cc1cccc(C)c1-n1c(/C=C/c2cc(Cl)cnc2O)nc2cnccc2c1=O', '≥ 5.00'),
  ('COc1cccc(/C=C/c2nc3cnccc3c(=O)n2-c2ccccc2C#N)c1O', '≥ 5.30'),
  ('CCOc1cccc(C=Cc2nc3ccccc3c(=O)n2-c2c(F)cccc2F)c1O', '≥ 6.30'),
  ('Cc1cccc(C)c1-n1c(/C=C/c2cc(OC(F)(F)F)ccc2O)nc2cnccc2c1=O', '≥ 5.00'),
  ('Cc1cccc(C)c1-n1c(/C=C/c2cnccc2O)nc2cnccc2c1=O', '≥ 5.00'),
  ('CCOc1cccc(/C=C/c2nc3cnccc3c(=O)n2-c2c(F)cccc2F)c1O', '≥ 6.30'),
  ('CCOc1nccc(/C=C/c2nc3ccccc3c(=O)n2-c2ccccc2C)c1O', '≥ 6.30');

Moving on to another compound below.
Query :: pIC50 for COc1cc(/C=C/c2nc3cnccc3c(=O)n2-c2c(C)cccc2C)ccn1 ?
Result :: ≥ 5.30
